For reference, the following IC50 results for Coagulation factor XI (Homo sapiens, UniProt P03951) were taken from various sources.

Cc1sc2c(c1C)C(=O)NC(c1cccc(O)c1)N2 (stereo not given) = > 50 µM

For the compound shown here, `C[C@H]1CCN(c2ccc(CNC(=O)c3cnnc(N4CC[C@]5(C4)OC(=O)Nc4ccc(Cl)c(F)c45)c3)cn2)C1` , give the reported IC50.
7.44 µM

For the compound shown here, `OCCCn1c(-c2ccccc2)nc(=S)c2c1CCCC2` , give the reported IC50.
> 50 µM

For the compound shown here, O=C1SCCC1NC(=O)C(c1ccccc1)c1ccccc1 (stereo not given) , give the reported IC50.
> 50 µM

For the compound shown here, `O=C(Nc1ccc2c(c1)oc1ccccc12)N1CCOCC1` , give the reported IC50.
> 50 µM
